Assign IC50 to each entry below.
biological target: Nitric oxide synthase 1 (Homo sapiens)
Sequence (P29475 whole entry): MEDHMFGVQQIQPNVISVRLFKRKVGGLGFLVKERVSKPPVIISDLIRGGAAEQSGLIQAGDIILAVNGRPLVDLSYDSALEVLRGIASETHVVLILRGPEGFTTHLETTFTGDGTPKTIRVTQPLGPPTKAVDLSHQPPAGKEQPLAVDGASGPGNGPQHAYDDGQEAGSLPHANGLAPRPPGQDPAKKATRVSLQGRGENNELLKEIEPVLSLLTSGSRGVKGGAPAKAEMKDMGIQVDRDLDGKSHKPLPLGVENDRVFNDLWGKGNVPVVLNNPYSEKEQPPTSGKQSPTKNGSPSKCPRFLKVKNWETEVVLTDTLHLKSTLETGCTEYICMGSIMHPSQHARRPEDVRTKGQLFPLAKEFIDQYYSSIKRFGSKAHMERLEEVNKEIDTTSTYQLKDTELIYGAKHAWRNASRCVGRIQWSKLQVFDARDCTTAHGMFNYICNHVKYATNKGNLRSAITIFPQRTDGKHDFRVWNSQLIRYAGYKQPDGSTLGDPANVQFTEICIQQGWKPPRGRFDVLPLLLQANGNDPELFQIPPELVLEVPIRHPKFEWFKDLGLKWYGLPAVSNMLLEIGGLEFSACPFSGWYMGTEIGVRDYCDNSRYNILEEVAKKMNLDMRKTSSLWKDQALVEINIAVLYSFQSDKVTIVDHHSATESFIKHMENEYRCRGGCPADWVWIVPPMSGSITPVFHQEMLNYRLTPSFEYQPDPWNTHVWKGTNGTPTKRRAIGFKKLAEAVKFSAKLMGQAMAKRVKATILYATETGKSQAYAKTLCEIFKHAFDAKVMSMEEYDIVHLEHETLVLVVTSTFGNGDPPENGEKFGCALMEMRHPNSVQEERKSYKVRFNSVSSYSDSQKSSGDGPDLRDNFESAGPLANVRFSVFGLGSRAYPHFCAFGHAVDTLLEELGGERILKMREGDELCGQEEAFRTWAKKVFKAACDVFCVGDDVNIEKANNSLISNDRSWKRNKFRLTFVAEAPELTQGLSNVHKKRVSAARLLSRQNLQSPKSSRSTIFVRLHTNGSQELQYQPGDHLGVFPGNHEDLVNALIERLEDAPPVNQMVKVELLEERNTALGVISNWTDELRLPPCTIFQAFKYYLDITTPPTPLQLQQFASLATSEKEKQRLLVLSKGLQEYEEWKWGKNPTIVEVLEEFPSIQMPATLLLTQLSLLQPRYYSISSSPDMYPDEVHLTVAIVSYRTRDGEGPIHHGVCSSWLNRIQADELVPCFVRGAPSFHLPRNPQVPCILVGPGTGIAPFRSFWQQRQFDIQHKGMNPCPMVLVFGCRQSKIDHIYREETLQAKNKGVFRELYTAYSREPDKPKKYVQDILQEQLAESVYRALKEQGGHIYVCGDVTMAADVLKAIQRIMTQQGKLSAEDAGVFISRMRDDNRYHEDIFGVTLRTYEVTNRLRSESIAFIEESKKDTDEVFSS
Respond with the bare value in µM.

Consider the compound NC1=NCCCS1 and give its measured IC50.
3.2

Give the measured IC50 of NC1=NCCCCCC1 .
10

###

assay: Selectivity is defined as the ratio of the IC50(hecNOS) to IC50(hiNOS)
measurement type: Selectivity
Number, no unit, nothing else.

Given the entry N/C1=N/CCCCCC1 , report its measured Selectivity.
5.9

Would you kindly share the measured Selectivity for NC1=NCCCS1 ?
2.4

// Selectivity lookup, key: NC1=NCCC1
3.6

Selectivity lookup needed for NC1=NCCCN1 , thanks.
3.5

I am curious: what Selectivity value has been reported for NC1=NCCCCC1 ?
8

Report Selectivity for CC(=N)NCCCC[C@H](N)C(=O)O please.
30

What value of Selectivity has been recorded for this entry: NC1=NCCCO1
4.6

Dear colleague, I am looking for the recorded Selectivity of the following molecule: N/C1=N/CCCCCCC1
9.2
